test_description: chemical genetic growth profiling, strain panel (AID 1159580);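 further: tested at 20 µM; growth read once vehicle control cultures reached saturation at 30 °C; 1 = growth at the plate median or of vehicle wells; lower values mean less growth of the strain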
reported_conditions: S. cerevisiae deletion strains, growth OD, locus YER015W, strain faa2, hits give low values
Screen size: about 5,500 compounds; about 2,000 (36%) were called active. Another 18% or so got no clear call; they are omitted. The list shows a part of the results. Where a SMILES comes first, the peptide text is derived from it.
Give measured normalized growth for each item. Keep answers brief.

Worked cases, normalized growth given:
compound: O=C(O)C1CCCNC1 (centres undefined)
readout_label: normalized growth
reported: 1.02 (inactive)
//
compound: CCCCC(=O)O[C@]1(C(=O)CO)CCC2C3CCC4=CC(=O)CC[C@]4(C)C3[C@@H](O)C[C@@]21C (some centres undefined)
readout_label: normalized growth
reported: 0.972 (inactive)
//
compound: CC(=O)O[C@H]1C[C@@H](OC(C)=O)C(C)(C)C2C[C@@H](OC(C)=O)[C@]3(C)C(CC[C@@]4(C)[C@H](c5ccoc5)OC(=O)[C@H]5O[C@]543)[C@]21C (some centres undefined)
readout_label: normalized growth
reported: 1 (inactive)
//
compound: Clc1ccccc1CN1CCc2sccc2C1
readout_label: normalized growth
reported: 1.01 (inactive)
//
compound: COc1ccc(CCC(=O)c2c(O)cc(O[C@@H]3O[C@H](CO)C(O)[C@H](O)C3O[C@@H]3O[C@@H](C)[C@H](O)[C@@H](O)[C@H]3O)cc2O)cc1O (some centres undefined)
readout_label: normalized growth
reported: 1.01 (inactive)

Quick batch: normalized growth for everything below.
1. CCCCCCCCCCCCCC(=O)OC1C(C)C2(O)C(C=C(CO)CC3(O)C(=O)C(C)=CC32)C2C(C)(C)C12OC(C)=O (centres undefined)
2. CC(=O)N[C@@H](CC(=O)O)C(=O)N[C@@H](CCC(=O)O)C(=O)O (Ac-Asp-Glu-OH)
3. c1ccc2c(CC3=NCCN3)cccc2c1

Marked response:
1. 0.986 (inactive)
2. 1 (inactive)
3. 0.959 (inactive)

====

Give measured normalized growth for each item. Keep answers brief.
test_description: chemical genetic growth profiling, strain panel (AID 1159580);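 further: tested at 20 µM; growth read once vehicle control cultures reached saturation at 30 °C; 1 = growth at the plate median or of vehicle wells; lower values mean less growth of the strain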
reported_conditions: S. cerevisiae deletion strains, growth OD, locus YAL026C, strain drs2, hits give low values
The whole screen tested about 5,500 compounds, of which about 2,000 (36%) were called active. Another 18% or so got no clear call; they are omitted. Some of the results follow.
One number for each entry.

Quick batch: normalized growth for everything below.
1. CCC(=O)OC1[C@@H]2CC3=C4CC(=O)O[C@@H](c5ccoc5)[C@]4(C)CCC3[C@@](C)(C2=O)[C@@H](CC(=O)OC)C1(C)C (some centres not stated)
2. CC(C)=CC1C(C(=O)OCc2cccc(Oc3ccccc3)c2)C1(C)C (configuration not stated)
3. CC(=O)O[C@@H]1CC2C(C)(C)[C@@H](O)CC[C@]2(C)C2CC[C@@]3(C)[C@H](c4ccoc4)OC(=O)[C@H]4O[C@]43[C@@]21C (some centres not stated)
4. NCC[C@@H](O)C(=O)N[C@@H]1C[C@H](N)[C@@H](O[C@H]2O[C@H](CN)[C@@H](O)[C@H](O)[C@H]2O)[C@H](O)[C@H]1O[C@H]1O[C@H](CO)[C@@H](O)[C@H](N)C1O (some centres not stated)
5. CC(=O)O[C@@H]1CC2C(C)(C)[C@H](O)C=C[C@]2(C)C2CC[C@@]3(C)[C@H](c4ccoc4)OC(=O)C4OC43[C@@]21C (some centres not stated)
6. O=C1CCCN1CC#CCN1CCCC1
7. CC(=O)OC/C=C(\C)CC/C=C(\C)CC/C=C(\C)CC/C=C(\C)CC/C=C(\C)CC/C=C(\C)CC/C=C(\C)CC/C=C(\C)CCC=C(C)C

Marked response:
1. 0.973
2. 1.02
3. 0.989
4. 1.02
5. 1.03
6. 1.03
7. 0.973

====

Give measured normalized growth for each item. Keep answers brief.
test_description: chemical genetic growth profiling, strain panel (AID 1159580);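 further: tested at 20 µM; growth read once vehicle control cultures reached saturation at 30 °C; 1 = growth at the plate median or of vehicle wells; lower values mean less growth of the strain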
reported_conditions: S. cerevisiae deletion strains, growth OD, locus YLR058C, strain SHM2, hits give low values
Among all 5,500 compounds or so, about 2,000 (36%) were called active. Another 18% or so got no clear call; they are omitted. This is one part of the list.
Give bare numbers.

Worked cases, normalized growth given:
molecule: O=C(O)CCCCCCCC(=O)O
normalized growth: 0.978
//
molecule: NCCCCCC(=O)O
normalized growth: 0.992
//
molecule: CC(=O)O[C@H]1C[C@@]2(C)[C@@H](C[C@@H](O)C3[C@]2(C)CC[C@H]2[C@H](C)[C@H](O)CC[C@]32C)/C1=C(/CCC=C(C)C)C(=O)O (stereo partly specified)
normalized growth: 1.04
//
molecule: NCCCCC(=O)O
normalized growth: 1.03
//
molecule: CC(=O)O[C@@H]1CC2C(C)(C)[C@H](O)CC[C@]2(C)C2CC[C@@]3(C)[C@H](c4ccoc4)OC(=O)[C@H]4O[C@]43[C@@]21C (stereo partly specified)
normalized growth: 1.01
//
molecule: C[C@]12C=CC(=O)C=C1CCC1C2[C@@H](O)C[C@@]2(C)C1CC[C@]2(O)C(=O)CO (stereo partly specified)
normalized growth: 0.994
//
molecule: CC(=O)O[C@@H]1CC2C(C)(C)[C@@H](O)CC[C@]2(C)C2CC[C@@]3(C)[C@H](c4ccoc4)OC(=O)[C@H]4O[C@]43[C@@]21C (stereo partly specified)
normalized growth: 1
//
molecule: CC(=O)O[C@@H]1CC2C(C)(C)C(=O)C3OC3[C@]2(C)C2CC[C@@]3(C)[C@H](c4ccoc4)OC(=O)C4OC43[C@@]21C (stereo partly specified)
normalized growth: 1.01

Quick batch: normalized growth for everything below.
1. CC(=O)OC1CC(OC(C)=O)C2(C)C(CC(OC(C)=O)C3(C)C2CCC2(C)C(c4ccoc4)OC(=O)C4OC423)C1(C)C (stereo unspecified)
2. CC(=O)O[C@H]1CC[C@@]2(C)C(C[C@@H](OC(C)=O)[C@]3(C)C2CC[C@@]2(C)[C@H](c4ccoc4)OC(=O)[C@H]4O[C@]423)C1(C)C (stereo partly specified)
3. CC(=O)O[C@H]1C[C@@H](OC(C)=O)C(C)(C)C2C[C@@H](O)[C@]3(C)C(CC[C@@]4(C)[C@H](c5ccoc5)OC(=O)[C@H]5O[C@]543)[C@]21C (stereo partly specified)
4. CN[C@@H]1C(OC2[C@H](O[C@H]3[C@H](O)[C@@H](O)[C@H](N=C(N)N)[C@@H](O)[C@@H]3N=C(N)N)OC(C)[C@]2(O)CO)OC(CO)C(O)C1O (stereo partly specified)
5. Cc1cccc(C)c1NC(=O)C1CCCCN1C (stereo unspecified)
6. CC1(C)C(=O)[C@@H]2O[C@@H]2[C@@]2(C)C1C[C@@H](O)[C@]1(C)C2CC[C@@]2(C)[C@H](c3ccoc3)OC(=O)C3OC321 (stereo partly specified)
7. COC(=O)[C@@H]1OC(=O)C2OC23[C@@]1(C)CCC1[C@@]2(C)CCC(=O)C(C)(C)C2C[C@@H](OC(C)=O)[C@]13C (stereo partly specified)
8. Cc1oncc1C(=O)Nc1ccc(C(F)(F)F)cc1

Marked response:
1: 0.984; 2: 1.01; 3: 0.973; 4: 0.985; 5: 1; 6: 0.997; 7: 1.04; 8: 1.02

====

Give measured normalized growth for each item. Keep answers brief.
test_description: chemical genetic growth profiling, strain panel (AID 1159580);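 further: tested at 20 µM; growth read once vehicle control cultures reached saturation at 30 °C; 1 = growth at the plate median or of vehicle wells; lower values mean less growth of the strain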
reported_conditions: S. cerevisiae deletion strains, growth OD, locus YJL187C, strain SWE1 (second series), hits give low values
The whole screen tested about 5,500 compounds, of which about 2,000 (36%) were called active. About 18% were inconclusive and are not listed. Some of the results follow.
One number for each entry.

Worked cases, normalized growth given:
compound: CCC(=O)OC1[C@@H]2CC3=C4CC(=O)O[C@@H](c5ccoc5)[C@]4(C)CCC3[C@@](C)(C2=O)[C@@H](CC(=O)OC)C1(C)C (some centres not stated)
normalized growth: 1.01

compound: NC(C(=O)O)C(O)C(=O)O (configuration not stated)
normalized growth: 1.03

compound: N[C@@H](C(=O)O)[C@@H](O)[C@H](O)[C@H](O)CO
normalized growth: 1.01

compound: O=C(O)CCC1NCC2CC1CN1CCCCC21 (configuration not stated)
normalized growth: 1.01

compound: CC(=O)NCCc1c[nH]c2ccc(O)cc12
normalized growth: 0.95

compound: CCCn1c(=O)c2[nH]c(C3CCCC3)nc2n(CCC)c1=O
normalized growth: 0.982

Quick batch: normalized growth for everything below.
1. O=C(O)C(O)C(O)C(=O)O (configuration not stated)
2. CC(C)(S)[C@@H](N)C(=O)O
3. CN(C)C(=O)Oc1ccc[n+](C)c1

Marked response:
[0.98, 1.01, 1]

Quick batch: normalized growth for everything below.
1. C=C[C@@]1(C)CC(=O)[C@@]2(O)[C@](C)(O1)[C@@H](OC(C)=O)[C@@H](O)C1C(C)(C)CC[C@H](O)[C@@]12C (some centres not stated)
2. NC(N)=NCCN1CCCCCCC1
3. O=c1cccc2n1CC1CC2CN2CCCC[C@@H]12 (some centres not stated)

Marked response:
[0.991, 1.01, 0.995]
